- assay.name: Pharmacokinetic analysis in mice
- Type: in vivo, C57BL/6 mice
- condition.notes: mouse, in vivo, ip; single dose 10 mg/kg intraperitoneally, female C57BL/6 mice; read-out: Tmax
metric: Tmax (h)
Response body: numeric value in h, unit text excluded.

Asked: Dear colleague, I am looking for the recorded Tmax of the following molecule: `COc1cc(-c2cc(-c3ccc(C4CCN(C)CC4)cc3)cnc2N)cc(NS(C)(=O)=O)c1OC`
Given back: 1
